measurement_description: Dog PK, crystalline compound 2 suspension injected intramuscularly (Table 24A)
Assay type: in vivo
reported_conditions: plasma analyte = labelled substance, after IM crystalline Compound 2 10 mg/kg, 20 mg/mL suspension in 3% TPGS, 1% HPMC E5
measured_parameter: AUC(0-inf) (µM·h)

1. CCCC(=O)OCOc1c(-c2ccc(Oc3ccc(OC(F)(F)F)cc3)cc2)c(C)nc2cc(OC)c(Cl)cc12
2. COc1cc2[nH]c(C)c(-c3ccc(Oc4ccc(OC(F)(F)F)cc4)cc3)c(=O)c2cc1Cl [ELQ-300, reference compound]
Lower AUC(0-inf): 1 or 2 ? Output the label that corresponds to your choice.
1
(1: 18.1 µM·h, 2: 1290 µM·h)

====

measurement_description: Dog PK, crystalline compound 2 suspension injected intramuscularly (Table 24A)
Format: in vivo
reported_conditions: plasma analyte = labelled substance, after IM crystalline Compound 2 10 mg/kg suspension
measured_parameter: half-life (h)

1. CCCC(=O)OCOc1c(-c2ccc(Oc3ccc(OC(F)(F)F)cc3)cc2)c(C)nc2cc(OC)c(Cl)cc12
2. COc1cc2[nH]c(C)c(-c3ccc(Oc4ccc(OC(F)(F)F)cc4)cc3)c(=O)c2cc1Cl [ELQ-300, reference compound]
Lower half-life: 1 or 2 ? Output the label that corresponds to your choice.
1
(1: 124 h, 2: 205 h)

====

measurement_description: Key in vitro ADME for Compound 2 (Table 36)
reported_conditions: Dog hepatocytes; read-out: Hepatocyte T1/2
measured_parameter: half-life (min)
Express the result in min but write the number alone.

Note down half-life recorded for `CCCC(=O)OCOc1c(-c2ccc(Oc3ccc(OC(F)(F)F)cc3)cc2)c(C)nc2cc(OC)c(Cl)cc12`
22

====

measurement_description: Key in vitro ADME for Compound 2 (Table 36)
reported_conditions: Human hepatocytes; read-out: Hepatocyte T1/2
measured_parameter: half-life (h)
Express the result in h but write the number alone.

Note down half-life recorded for `CCCC(=O)OCOc1c(-c2ccc(Oc3ccc(OC(F)(F)F)cc3)cc2)c(C)nc2cc(OC)c(Cl)cc12`
1.28

====

measurement_description: Dog PK, crystalline compound 2 suspension injected intramuscularly (Table 24A)
Format: in vivo
reported_conditions: plasma analyte = labelled substance, after IM crystalline Compound 2 10 mg/kg, 20 mg/mL suspension in 3% TPGS, 1% HPMC E5
measured_parameter: CL/F (mL/min/kg)

a. CCCC(=O)OCOc1c(-c2ccc(Oc3ccc(OC(F)(F)F)cc3)cc2)c(C)nc2cc(OC)c(Cl)cc12
b. COc1cc2[nH]c(C)c(-c3ccc(Oc4ccc(OC(F)(F)F)cc4)cc3)c(=O)c2cc1Cl [ELQ-300, reference compound]
Which value of CL/F is numerically greater: that of a or that of b ? Output the label that corresponds to your choice.
a

====

measurement_description: Dog PK, crystalline compound 2 suspension injected intramuscularly (Table 24A)
Format: in vivo
reported_conditions: plasma analyte = labelled substance, after IM crystalline Compound 2 10 mg/kg, 20 mg/mL suspension in 3% TPGS, 1% HPMC E5
measured_parameter: AUC(0-t) (µM·h)

I. COc1cc2[nH]c(C)c(-c3ccc(Oc4ccc(OC(F)(F)F)cc4)cc3)c(=O)c2cc1Cl [ELQ-300, reference compound]
II. CCCC(=O)OCOc1c(-c2ccc(Oc3ccc(OC(F)(F)F)cc3)cc2)c(C)nc2cc(OC)c(Cl)cc12 [Compound 2]
Lower AUC(0-t): I or II ? Output the label that corresponds to your choice.
II
